Target: AKT1-NL (Homo sapiens, UniProt P31749)
Construct: full-length versions of AKT1, AKT2, and AKT3, were separately subcloned into pNLF1-N or pNLF1-C vectors
Sequence (P31749 whole entry): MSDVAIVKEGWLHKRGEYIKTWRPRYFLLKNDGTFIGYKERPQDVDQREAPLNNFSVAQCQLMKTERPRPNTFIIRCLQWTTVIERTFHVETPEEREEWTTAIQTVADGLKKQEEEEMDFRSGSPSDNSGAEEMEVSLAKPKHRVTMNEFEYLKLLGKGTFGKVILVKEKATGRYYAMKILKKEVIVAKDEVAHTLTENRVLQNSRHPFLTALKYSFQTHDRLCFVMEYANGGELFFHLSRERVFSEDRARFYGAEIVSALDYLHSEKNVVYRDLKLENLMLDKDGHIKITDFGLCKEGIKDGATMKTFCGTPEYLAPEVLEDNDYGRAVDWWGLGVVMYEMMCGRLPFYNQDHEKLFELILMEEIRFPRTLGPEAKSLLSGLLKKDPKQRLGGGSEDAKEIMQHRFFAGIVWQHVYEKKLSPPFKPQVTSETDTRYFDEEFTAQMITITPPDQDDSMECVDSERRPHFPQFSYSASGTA
Assay: Live-cell steady-state NanoBRET target engagement assay, AKT1-NL
assay-readout: pKi
The meaning of pKi here: minus log10 of the concentration in molar units.

Kindly note the recorded pKi for Cc1n[nH]c2ccc(-c3cncc(OCC(N)Cc4c[nH]c5ccccc45)c3)cc12 (stereo not shown) [A-443654] , which is 7.49

----------
Target: PDK1-NL (Homo sapiens)
Sequence (O15530 whole entry): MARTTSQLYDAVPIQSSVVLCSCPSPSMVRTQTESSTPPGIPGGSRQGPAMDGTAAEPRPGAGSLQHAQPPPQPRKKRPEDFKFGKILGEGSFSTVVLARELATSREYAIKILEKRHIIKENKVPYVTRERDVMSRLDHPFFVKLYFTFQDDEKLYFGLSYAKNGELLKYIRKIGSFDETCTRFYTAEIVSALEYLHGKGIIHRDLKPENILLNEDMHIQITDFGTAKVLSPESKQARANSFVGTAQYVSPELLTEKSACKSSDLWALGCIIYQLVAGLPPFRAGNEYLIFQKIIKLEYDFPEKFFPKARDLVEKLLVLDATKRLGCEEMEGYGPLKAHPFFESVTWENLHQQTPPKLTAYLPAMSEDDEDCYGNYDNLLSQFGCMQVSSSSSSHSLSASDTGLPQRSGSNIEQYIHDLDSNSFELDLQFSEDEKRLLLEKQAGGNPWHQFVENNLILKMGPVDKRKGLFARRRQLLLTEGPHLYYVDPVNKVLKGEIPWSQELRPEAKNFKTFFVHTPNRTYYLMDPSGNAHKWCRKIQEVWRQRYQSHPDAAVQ
Experiment: NanoBRET competition assay using PDK1-NL
Settings: ± SEM, n = 3 biological replicates; read-out: PDK1-NL calculated Ki
assay-readout: pKi
The meaning of pKi here: minus log10 of the concentration in molar units.

Kindly note the recorded pKi for O=C(NCCCNc1nc(Nc2cccc(NC(=O)N3CCCC3)c2)ncc1I)c1cccs1 [BX-795] , which is 8.23
